Biological target: DNA gyrase subunit B (Staphylococcus aureus)
Experiment: GyraseB Assay
Conditions: pH 7.5
compounds and their reported pIC50
Just the number, please; pIC50 means minus log10 of the concentration in mol/L.

Completed entries (count: 4):
                                        smi  numeric_readout
0  NNC(=O)CCC(=O)Nc1ccc(NC(=O)c2ccc[nH]2)cc1             4.26
1  O=C(O)CCC(=O)Nc1ccc(NC(=O)c2ccc([N+](=O)[O-])o2)cc1             4.54
2  Cc1ccc(C(=O)Nc2ccc(NC(=O)CCC(=O)O)cc2)o1             4.99
3     O=C(O)CCC(=O)Nc1ccc(NC(=O)c2cccs2)cc1             4.66

Determine its reported pIC50: NNC(=O)CCC(=O)Nc1ccc(NC(=O)c2ccc([N+](=O)[O-])o2)cc1 4.45

* * *

Target: DNA gyrase subunit B (Staphylococcus aureus, UniProt P0A0K8)
Sequence (P0A0K8 whole entry): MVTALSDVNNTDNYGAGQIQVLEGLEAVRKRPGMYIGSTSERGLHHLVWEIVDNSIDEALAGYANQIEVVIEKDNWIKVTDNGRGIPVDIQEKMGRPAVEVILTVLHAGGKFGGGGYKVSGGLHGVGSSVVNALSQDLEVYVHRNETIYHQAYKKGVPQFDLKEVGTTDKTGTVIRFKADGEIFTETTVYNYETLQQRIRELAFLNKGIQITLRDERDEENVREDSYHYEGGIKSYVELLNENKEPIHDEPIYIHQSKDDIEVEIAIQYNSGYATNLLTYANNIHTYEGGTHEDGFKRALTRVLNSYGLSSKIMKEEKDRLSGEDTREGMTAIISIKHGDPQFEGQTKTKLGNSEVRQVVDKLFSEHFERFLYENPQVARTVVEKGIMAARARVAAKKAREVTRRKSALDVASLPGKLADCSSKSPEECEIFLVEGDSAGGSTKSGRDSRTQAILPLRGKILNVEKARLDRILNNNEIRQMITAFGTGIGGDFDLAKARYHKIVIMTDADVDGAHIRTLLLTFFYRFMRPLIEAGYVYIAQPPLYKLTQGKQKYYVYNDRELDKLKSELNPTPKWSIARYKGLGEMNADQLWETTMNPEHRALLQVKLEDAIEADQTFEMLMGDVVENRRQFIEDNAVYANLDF
Experiment: GyraseB Assay
Conditions: pH 7.5
Values of IC50 strictly less than 30 µM map to yes (1), and values of at least 30 µM map to no (0).

Answered examples (3):
                                   molecule  class_label
0  O=C(O)CCC(=O)Nc1ccc(NC(=O)C2CCCO2)cc1 (stereo unspecified)      yes (1)
1  Cc1ccc(C(=O)Nc2ccc(NC(=O)CCC(=O)O)cc2)s1      yes (1)
2  Cc1ccc(C(=O)Nc2ccc(NC(=O)CCC(=O)NN)cc2)o1      yes (1)

Report whether reported IC50 is lower than 30 µM (strictly) for Cc1ccc(C(=O)Nc2ccc(NC(=O)CCC(=O)NN)cc2)s1 yes (1)

Report whether reported IC50 is lower than 30 µM (strictly) for NNC(=O)CCC(=O)Nc1ccc(NC(=O)c2cccs2)cc1 no (0)

Report whether reported IC50 is lower than 30 µM (strictly) for O=C(O)CCC(=O)Nc1ccc(NC(=O)c2ccc[nH]2)cc1 no (0)

Report whether reported IC50 is lower than 30 µM (strictly) for NNC(=O)CCC(=O)Nc1ccc(NC(=O)C2CCCO2)cc1 (stereo unspecified) no (0)

Report whether reported IC50 is lower than 30 µM (strictly) for NNC(=O)CCC(=O)Nc1ccc(NC(=O)c2ccc([N+](=O)[O-])s2)cc1 yes (1)

Report whether reported IC50 is lower than 30 µM (strictly) for NNC(=O)CCC(=O)Nc1ccc(NC(=O)c2ccco2)cc1 no (0)
